# System: human lung cancer strain NCI-H441;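 note: cell proliferation inhibition after four days measured by CellTiter-Glo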
MEASURE: IC50 (nM)
Field: numeric (nM). Do not append units.

Form field: IC50 recorded for CCC[C@H]1C(=O)N[C@@H]([C@@H](C)CC)C(=O)N2CCC[C@H]2C(=O)N(C)[C@H]2C/C=C\CCN(C2=O)[C@@H](Cc2ccc(C(F)F)cc2)C(=O)N(C)CC(=O)N[C@@H](CCc2ccc(Cl)c(Cl)c2)C(=O)N2C[C@H](OCC)C[C@H]2C(=O)NC2(CC(C)(C)C2)C(=O)N(C)[C@@H](C(CC)CC)C(=O)N(C)[C@H](C(=O)N(C)C)CC(=O)N1C [PP2637] with human lung cancer strain NCI-H441 (enter value)
61.4
